test system: Salmonella gallinarum; experiment: Antibacterial activity, plate disc method (diameter of inhibitory circle), Salmonella gallinarum; format: cell-based; details: 100 γ/ml; pH 8.0, plate disc method
MEASURE NAME: diameter of inhibitory circle
Just the number, please, no unit after it.

{"COMPOUND": "CO[C@@]1(NC(=O)CCCC(=O)O)C(=O)N2C(C(=O)O)=C(COC(=O)/C=C/c3ccc(O)cc3)CS[C@@H]21", "diameter of inhibitory circle": 11.5}
{"COMPOUND": "CO[C@@]1(NC(=O)CCC[C@@H](N)C(=O)O)C(=O)N2C(C(=O)O)=C(COC(=O)/C=C/c3ccc(O)cc3)CS[C@@H]21", "diameter of inhibitory circle": 15.1}
{"COMPOUND": "CO[C@@]1(NC(=O)CCCC(=O)O)C(=O)N2C(C(=O)O)=C(COC(=O)/C=C/c3ccc(OS(=O)(=O)O)cc3)CS[C@@H]21", "diameter of inhibitory circle": 14.2}

Let me check: CO[C@@]1(NC(=O)CCC[C@@H](N)C(=O)O)C(=O)N2C(C(=O)O)=C(COC(=O)/C=C/c3ccc(OS(=O)(=O)O)cc3)CS[C@@H]21 , system Salmonella gallinarum, measured diameter of inhibitory circle is 17.0

Let me check: CO[C@@]1(NC(=O)CCCC(N)C(=O)O)C(=O)N2C(C(=O)O)=C(CSc3nnnn3C)CS[C@@H]21 (some centres unmarked) [Y-G19Z-G, reference compound] , system Salmonella gallinarum, measured diameter of inhibitory circle is 18.5

* * *

system: Bacillus subtilis ATCC 6633; assay: Minimum inhibitory concentration, Bacillus subtilis; assay type: cell-based; conditions: ATCC6633
MEASURE NAME: MIC
Please provide the amount together with its unit, number first.

As a guide, the following entries are already answered.
{"COMPOUND": "COC(=Cc1ccc(OS(=O)(=O)O)cc1)C(=O)OCC1=C(C(=O)O)N2C(=O)[C@](NC(=O)CCC[C@@H](N)C(=O)O)(OC)[C@H]2SC1 [Comp. a, reference compound]", "TARGET SYSTEM": "Bacillus subtilis ATCC 6633", "ENDPOINT RESULT": "50 µg/mL"}
{"COMPOUND": "CO[C@@]1(NC(=O)CCCC(=O)O)C(=O)N2C(C(=O)O)=C(COC(=O)/C=C/c3ccc(O)cc3)CS[C@@H]21 [Compound (D)]", "TARGET SYSTEM": "Bacillus subtilis ATCC 6633", "ENDPOINT RESULT": "100 µg/mL"}
{"COMPOUND": "CO[C@@]1(NC(=O)CCC[C@@H](N)C(=O)O)C(=O)N2C(C(=O)O)=C(COC(=O)/C=C/c3ccc(O)cc3)CS[C@@H]21 [Compound (C)]", "TARGET SYSTEM": "Bacillus subtilis ATCC 6633", "ENDPOINT RESULT": "3.13 µg/mL"}

For record CO[C@@]1(NC(=O)CCCC(=O)O)C(=O)N2C(C(=O)O)=C(COC(=O)/C=C/c3ccc(OS(=O)(=O)O)cc3)CS[C@@H]21 [Compound (B)] the listed MIC is 100 µg/mL

For record COC(=Cc1ccc(O)cc1)C(=O)OCC1=C(C(=O)O)N2C(=O)[C@](NC(=O)CCC[C@@H](N)C(=O)O)(OC)[C@H]2SC1 [Comp. b, reference compound] the listed MIC is 6.25 µg/mL

For record CO[C@@]1(NC(=O)CCC[C@@H](N)C(=O)O)C(=O)N2C(C(=O)O)=C(COC(=O)/C=C/c3ccc(OS(=O)(=O)O)cc3)CS[C@@H]21 [Compound (A)] the listed MIC is 12.5 µg/mL
